Hey, just so you know, these numbers are from the supplement of paper PMC8728848.

STUDY TARGET: Gal(a1-3)GalNAc
EXPERIMENT DESCRIPTION: glycan array binding signal (z-score within array); higher = stronger binding
TEST SETTINGS: glycan notation: IUPAC condensed, linker removed
The full list was thinned out, with the strongest signals kept by preference.
Everything with glycan array binding signal (z-score) lower than -0.2 is FALSE; everything else, including exactly -0.2, is TRUE.

Solved entries:
[
  {
    "BINDER": "Gal 8 (Homo sapiens) (protein) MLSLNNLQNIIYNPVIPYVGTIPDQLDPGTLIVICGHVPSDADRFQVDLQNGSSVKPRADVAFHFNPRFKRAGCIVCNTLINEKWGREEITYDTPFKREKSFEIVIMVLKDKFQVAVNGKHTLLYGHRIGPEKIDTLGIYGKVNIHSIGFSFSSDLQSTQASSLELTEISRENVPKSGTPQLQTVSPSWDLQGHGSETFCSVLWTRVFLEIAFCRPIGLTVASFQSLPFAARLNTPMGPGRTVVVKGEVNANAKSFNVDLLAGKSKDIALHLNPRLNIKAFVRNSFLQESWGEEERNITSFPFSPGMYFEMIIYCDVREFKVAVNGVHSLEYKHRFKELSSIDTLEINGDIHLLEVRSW",
    "CLASS": "FALSE"
  },
  {
    "BINDER": "DrGal3 (Danio rerio) (protein) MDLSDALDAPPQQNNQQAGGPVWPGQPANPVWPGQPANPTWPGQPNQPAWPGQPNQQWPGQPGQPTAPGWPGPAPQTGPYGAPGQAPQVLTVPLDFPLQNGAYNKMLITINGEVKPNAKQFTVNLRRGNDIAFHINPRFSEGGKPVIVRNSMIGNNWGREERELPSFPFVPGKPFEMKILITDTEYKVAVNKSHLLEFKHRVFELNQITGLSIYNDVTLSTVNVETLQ",
    "CLASS": "TRUE"
  },
  {
    "BINDER": "LgFlo1 (Saccharomyces pastorianus), B3IUA8 (protein) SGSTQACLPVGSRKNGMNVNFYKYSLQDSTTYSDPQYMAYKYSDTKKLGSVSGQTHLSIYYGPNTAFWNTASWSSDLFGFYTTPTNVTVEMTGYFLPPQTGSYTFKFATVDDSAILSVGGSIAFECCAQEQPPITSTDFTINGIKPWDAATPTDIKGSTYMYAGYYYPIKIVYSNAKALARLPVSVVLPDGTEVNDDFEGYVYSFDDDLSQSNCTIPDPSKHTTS",
    "CLASS": "TRUE"
  }
]

Entry Sp8391B-bot-388-20-388 (Bacteroides ovatus) (protein) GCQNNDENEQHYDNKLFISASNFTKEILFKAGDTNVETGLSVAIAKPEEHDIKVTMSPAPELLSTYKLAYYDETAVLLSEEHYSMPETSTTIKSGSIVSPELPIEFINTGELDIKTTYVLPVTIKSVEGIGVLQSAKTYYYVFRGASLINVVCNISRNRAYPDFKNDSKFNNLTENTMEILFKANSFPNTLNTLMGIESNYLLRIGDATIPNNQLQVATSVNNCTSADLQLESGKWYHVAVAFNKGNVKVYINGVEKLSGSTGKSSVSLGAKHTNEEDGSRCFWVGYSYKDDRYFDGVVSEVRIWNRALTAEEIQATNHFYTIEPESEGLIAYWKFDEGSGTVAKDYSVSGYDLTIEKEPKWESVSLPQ : is its glycan array binding signal (z-score) no less than -0.2?
TRUE

Entry EPL1 (Trichoderma atroviride), A0PCX2 (protein) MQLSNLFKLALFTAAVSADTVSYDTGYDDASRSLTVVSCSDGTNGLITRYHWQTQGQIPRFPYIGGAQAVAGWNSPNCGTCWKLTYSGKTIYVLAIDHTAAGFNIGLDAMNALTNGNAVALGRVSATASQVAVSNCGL : is its glycan array binding signal (z-score) no less than -0.2?
TRUE

Entry Intelectin 1 (Homo sapiens), Q8WWA0 (protein) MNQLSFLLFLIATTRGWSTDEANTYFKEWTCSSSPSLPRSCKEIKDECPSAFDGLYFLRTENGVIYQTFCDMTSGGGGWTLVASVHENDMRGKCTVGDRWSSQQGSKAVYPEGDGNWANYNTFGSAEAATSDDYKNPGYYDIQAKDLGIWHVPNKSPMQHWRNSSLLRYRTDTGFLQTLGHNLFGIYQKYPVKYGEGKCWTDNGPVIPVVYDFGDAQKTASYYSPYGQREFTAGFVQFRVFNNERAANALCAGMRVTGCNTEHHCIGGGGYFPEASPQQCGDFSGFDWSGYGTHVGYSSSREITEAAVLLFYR : is its glycan array binding signal (z-score) no less than -0.2?
FALSE

Entry ArathEULS3 TAP (Arabidopsis thaliana) (protein) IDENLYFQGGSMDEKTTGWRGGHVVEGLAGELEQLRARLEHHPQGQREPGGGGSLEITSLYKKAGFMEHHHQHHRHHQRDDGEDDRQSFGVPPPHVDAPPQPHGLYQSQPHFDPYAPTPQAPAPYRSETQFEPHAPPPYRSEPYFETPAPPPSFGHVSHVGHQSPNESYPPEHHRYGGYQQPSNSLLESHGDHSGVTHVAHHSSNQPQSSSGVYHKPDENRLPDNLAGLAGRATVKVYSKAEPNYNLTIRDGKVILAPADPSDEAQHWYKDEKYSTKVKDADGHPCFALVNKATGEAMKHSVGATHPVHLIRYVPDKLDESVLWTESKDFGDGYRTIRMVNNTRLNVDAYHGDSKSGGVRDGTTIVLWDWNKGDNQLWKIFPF : is its glycan array binding signal (z-score) no less than -0.2?
FALSE

Entry Gal 1 (Mus musculus), P16045 (protein) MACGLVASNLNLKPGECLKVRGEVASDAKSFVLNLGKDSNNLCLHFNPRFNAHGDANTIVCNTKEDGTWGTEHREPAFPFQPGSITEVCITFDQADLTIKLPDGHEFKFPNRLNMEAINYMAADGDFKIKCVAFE : is its glycan array binding signal (z-score) no less than -0.2?
TRUE

Entry CTMLA2 (Anopheles gambiae), Q7Q7F8 (protein) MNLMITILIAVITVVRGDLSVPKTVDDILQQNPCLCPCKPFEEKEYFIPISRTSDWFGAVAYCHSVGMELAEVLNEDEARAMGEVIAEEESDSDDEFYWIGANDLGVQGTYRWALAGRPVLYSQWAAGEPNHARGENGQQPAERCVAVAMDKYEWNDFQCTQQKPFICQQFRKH : is its glycan array binding signal (z-score) no less than -0.2?
TRUE
